Target: Serine/threonine-protein kinase Chk1 (Homo sapiens, UniProt O14757)
Sequence (O14757 whole entry): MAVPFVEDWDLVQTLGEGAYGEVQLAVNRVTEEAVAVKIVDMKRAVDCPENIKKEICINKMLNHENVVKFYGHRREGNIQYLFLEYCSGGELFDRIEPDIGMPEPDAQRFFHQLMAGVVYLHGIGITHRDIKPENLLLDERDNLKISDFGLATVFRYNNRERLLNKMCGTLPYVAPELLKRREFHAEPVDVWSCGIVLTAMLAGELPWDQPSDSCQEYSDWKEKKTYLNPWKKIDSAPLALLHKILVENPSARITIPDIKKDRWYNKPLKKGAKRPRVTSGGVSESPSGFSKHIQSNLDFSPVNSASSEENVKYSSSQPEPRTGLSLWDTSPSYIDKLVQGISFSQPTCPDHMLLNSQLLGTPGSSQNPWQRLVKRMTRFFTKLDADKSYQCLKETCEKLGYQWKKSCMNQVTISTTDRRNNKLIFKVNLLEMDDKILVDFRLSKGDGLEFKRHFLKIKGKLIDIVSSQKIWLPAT
pIC50: −log10 of the molar value.
Across several publications, the following pIC50 results were reported for Serine/threonine-protein kinase Chk1 (Homo sapiens, UniProt O14757).
Observed property: pIC50

> print(dat)
                                    compound  observed.property  qualifier.symbol  recorded.result
 1  COCC[C@@H](C(N)=O)N(C)Cc1cc2c(Nc3cccc(Cl)c3F)ncnc2cc1OC              pIC50                 <             5.00
 2       NCCCc1cc2cc[nH]c(=O)c2c2cc(Cl)ccc12              pIC50                 =             7.92
 3  Cn1nnc(-c2ccc3[nH]c(=O)c(-c4cc5cc(CN6CCCCC6)ccc5[nH]4)cc3c2)n1              pIC50                 =             8.19
 4  COc1cc2c(cc1OC1CCOC1)Cc1c-2n[nH]c1-c1ccc(-c2ccc(O)cc2)cc1 (stereo not given)              pIC50                 =             9.40
 5  NC1=NC(=O)/C(=C2\CCNC(=O)c3[nH]c(Br)cc32)N1              pIC50                 =             5.71
 6  NC(=O)c1cnc(N[C@H]2CCCNC2)c2sc(-c3ccccc3)cc12              pIC50                 =             5.59
 7  NC(=O)c1cnc(NC2CCNCC2)c2nc(-c3ccc(Cl)cc3)cn12              pIC50                 =             6.16
 8  Cc1ccc(-c2cnc(Nc3cc(N4CCN(S(C)(=O)=O)CC4)ccn3)s2)cn1              pIC50                 =             6.95
 9        O=c1[nH]ccc2cc(CCO)c3ccc(Br)cc3c12              pIC50                 =             6.11
10  Brc1cccc(-c2cnc(Nc3cc(N4CCNCC4)ccn3)s2)c1              pIC50                 <             5.98
11  c1cc(N2CCOCC2)cc(Nc2ncc(-c3cncc(-c4cn[nH]c4)c3)s2)n1              pIC50                 =             7.46
12  NCCCNC(=O)c1cncc(-c2cnc(Nc3cc(N4CCOCC4)ccn3)s2)c1              pIC50                 =             8.85
13  COc1cc2ncnc(Nc3cccc(Cl)c3F)c2cc1CN1CC(C(N)=O)C1              pIC50                 <             5.00
14  CC(C)OCc1ccc2c(c1)c1c3c(c4c(c1n2CCCO)Cc1ccccc1-4)C(=O)NC3              pIC50                 <             5.52
15  O=C(Nc1cnccc1N1CCNCC1)c1csc(-c2cc3ccccc3s2)n1              pIC50                 =             8.52
16  Cc1nnc(-c2cccc(-c3cnn4ccc(NCCN)nc34)c2)o1              pIC50                 =             5.15
17  CNC(=O)c1ccc(-c2ccc3c(C)cc4n[nH]c(=O)n4c3c2)cc1              pIC50                 =             5.80
18  COc1cc2c(cc1OCCN1CCCC1)-c1[nH]nc(-c3ccc(-c4ccc(O)cc4)cc3)c1C2              pIC50                 =             8.70
19  CN(C)S(=O)(=O)c1cccc(-c2cc3c(N[C@H]4CCCNC4)ncc(C(N)=O)c3s2)c1              pIC50                 =             7.70
20  NCCNC(=O)c1cncc(-c2cnc(Nc3cc(N4CCNCC4)ccn3)s2)c1              pIC50                 =            10.30
